This collection of values is drawn from patent US20220306762A1.

Here the recorded FACS percent gated is given for each entry.
- STUDY TARGET: Murine CD38 on transiently transfected Expi293 cells (Origene MC208001) (murine) (UniProt P56528)
- ASSAY DETAILS: flow cytometry, 10 ug/ml scFv-Fc, transfected Expi293 cells
A number alone suffices; assume %.

Example binders with recorded FACS percent gated:
40769p2.1.G4 scFv-Fc (scFv, part only; not given: Linker, domain order, Fc, V domains shown, not shown: another chain or arm of the molecule; a dimerising Fc or GST; small tags and cut ends) VH: EVQLLESGGGLVQPGGSLRLSCAASGFTFTSHDMNWVRQAPGKGLEWVSTITTGGNTYYADSVKGRFTISRDNSKNTLYLQMTSLRAEDTAVYYCTKHYSMDVWGQGTTVTVSS VL: QSVLTQPPSASGTPGQRVTISCSGSTSNVVFNAVYWYQQLPGTAPKLLFYGKSQRPSGVPDRFSGSKSGTSASLAISGLQSEDEADYYCAAWDDTLNGWVFGGGTKLTVL    42.4
40769p2.1.E8 scFv-Fc (scFv, part only; not given: Linker, domain order, Fc, V domains shown, not shown: another chain or arm of the molecule; a dimerising Fc or GST; small tags and cut ends) VH: EVQLLESGGGLVQPGGSLRLSCTGFGFTFTDARMSWVRQAPGKGLEWVADISSYGDNTYYADSVKGRFTISRDNSANTLYVQMNSLRAEDTAVYYCAKRMEREVMTIKLDYHAMDVWGQGTTVTVSS VL: QSVLTQTPSVSGTPGQRVTISCSGVFNIRNYVSWYQQLPGTAPKLLIFKDDQRPSGVPDRFSGSRSGTSASLAISGLQSEDEADYYCAAWDIFLNVWVFGGGTKLTVL    1.99
40769p2.2.G3 scFv-Fc (scFv, part only; not given: Linker, domain order, Fc, V domains shown, not shown: another chain or arm of the molecule; a dimerising Fc or GST; small tags and cut ends) VH: EVQLLESGGGLVQPGGSLRLSCTASGITFSRFNMFWVRQAPGKGLEFVASIRDDGSWTYYADSVKGQFTISRDNSKNTLYLQMNSLRAEDTAVYYCAKDYSSKDFIYHYVMDVWGQGTTVTVSS VL: QSVLTQPPSASGTPGQRVTISCSGRNSNIGNNVVNWYQQLPGTAPKLLIYRNQERPSGVPDRFSGSKSGTSASLAISGLQSEDEADYYCASWDDSLNAWVFGRGTKLTVL    1.46
40769p2.1.H12 scFv-Fc (scFv, part only; not given: Linker, domain order, Fc, V domains shown, not shown: another chain or arm of the molecule; a dimerising Fc or GST; small tags and cut ends) VH: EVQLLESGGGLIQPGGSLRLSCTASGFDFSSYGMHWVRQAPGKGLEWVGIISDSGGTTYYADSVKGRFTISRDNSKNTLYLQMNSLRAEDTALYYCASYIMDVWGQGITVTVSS VL: QSVLTQPPSASGTPGQRVTISCSGSNSNVGVNSVYWYQQLPGTAPKLLIYGSGRRPSGVPDRFSVSKSGTSASLAISGLQSEDEADYYCAAWDDGLNAWVFGGGTKLTVL    22.9

Given the entry 40769p2.1.E1 scFv-Fc (scFv, part only; not given: Linker, domain order, Fc, V domains shown, not shown: another chain or arm of the molecule; a dimerising Fc or GST; small tags and cut ends) VH: EVQLLESGGGLIQPGGSLRLSCTASGFDFSSYGMHWVRQAPGKGLEWVAIISDSGGTTYYGDSVKGRFTISRDNSKSTLYLQMNSLRAEDTALYYCASYIMDVWGQGTTVTVSS VL: QSVLTQPPSASGTPEQRVTISCSGSNSNVGDNAVYWYQQLPGTAPKLLFYGTNRRPSGVPDRFSGSKSGTSASLAISGLQSEDEADYYCAAWDDSLNAWVFGGGTKLTVL , report its measured FACS percent gated.
23.7

Reported FACS percent gated, binder 40769p2.2.H4 scFv-Fc (scFv, part only; not given: Linker, domain order, Fc, V domains shown, not shown: another chain or arm of the molecule; a dimerising Fc or GST; small tags and cut ends) VH: EVQLLESGGGLVQPGGSLRLSCAASGFDFSSYWMNWVRQAPGKGLEWVSTISSGGSIIYYADSVKGQFTISRDNSKNTLYLQMNSLRAEDTAVYYCAKDNWNDYYGMDVWGQGTTVTVSS VL: QSVPTQPPSASGTPGQRVTISCSGSSSNIRDNYVYWYQQVPGTAPKLLIYKDDQRPSGVPDRFSGSKSGTSASLAISGLQSEDEADYYCATWDGSLNARVFGGGTKLTVL : ____
1.43

What FACS percent gated value was documented for this binder, 40769p2.1.E5 scFv-Fc (scFv, part only; not given: Linker, domain order, Fc, V domains shown, not shown: another chain or arm of the molecule; a dimerising Fc or GST; small tags and cut ends) VH: EVQLLESGGGLVQPGGSLRLSCTASAHIFKYNWMSWVRQAPGKGLEWVSSINSDGTITYYTDSVKGRFTISRDNSKNTLYLQMNSLRAEDTAVYYCAKDNWNDYAIDVWGQGTTVTVSS VL: QSVLTQPPSASGTPGQRVTISCSGSRSDIRNNYVSWYQQLPGTAPKLLIYSNGQRPSGVPDRFSGSKSGTSASLAISGLQSEDEADYYCAIWDDSLNAWVFGGGTKLTVL ?
3.13
